Assay: Pharmacokinetics after i.v. bolus
Assay type: in vivo, Sprague-Dawley rats
Settings: male, Sprague-Dawley, rat, plasma, iv, 5.8 mg/kg, terminal half-life, i.v. 5.8 mg/kg

compound: CCCCCCCCCCCCCCCc1ccc(CP(=O)(O)O)cc1 [Compound 22, 4-pentadecylbenzylphosphonic acid]
unit label: h
half-life: 10

* * *

Assay: Pharmacokinetics after i.v. bolus
Type: in vivo, Sprague-Dawley rats
Details: male, Sprague-Dawley, rat, plasma, iv, 5.8 mg/kg
metric: MRT (h)

molecule: CCCCCCCCCCCCCCCc1ccc(CP(=O)(O)O)cc1 [Compound 22, 4-pentadecylbenzylphosphonic acid]
metric: MRT
obs value: 7.6
